# TARGET: T1, TIGIT on TIGIT-over expressing NFAT-Luc/Jurkat effector cells (GenScript reporter cell line) (UniProt Q495A1 22-244, limits assumed)
# T1 sequence (looked up): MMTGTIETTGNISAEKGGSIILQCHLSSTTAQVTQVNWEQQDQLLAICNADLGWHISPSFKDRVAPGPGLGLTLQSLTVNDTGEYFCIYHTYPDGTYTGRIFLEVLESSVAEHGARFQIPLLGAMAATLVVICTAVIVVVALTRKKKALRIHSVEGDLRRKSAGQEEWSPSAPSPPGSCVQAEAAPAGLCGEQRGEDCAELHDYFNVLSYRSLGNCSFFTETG
# ASSAY_PROTOCOL: cell-based or functional assay
REPORTED_PROPERTY: Bottom (RLU)

binder="huTIGIT-3-1 (antibody, human IgG1, kappa, V domains shown, Humanized IgG; also called 3VH3.M4 + 3VL4.M6) VH: EVQLVESGGGLVQPGGSLRLSCAASGFTFSSYGMSWVRQAPGKGLELVATIKSSGGSTNLADSVKGRFTISRDNSKNTLYLQMNSLRAEDTAVYYCVRGYFDYWGQGTTVTVSS VL: DIQMTQSPSSLSASVGDRVTITCRASQDIKTALAWYQQKPGKSPKLLIYWASTRQSGVPSRFSGSGSGTDFTLTISSLQPEDVATYYCQQYYSTPYTFGGGTKVEIKR" reported_property="Bottom (RLU)" output_unit=RLU meas_value=54400
binder="TIGIT-6 chimeric antibody (antibody, human IgG1, kappa, V domains shown, also called 6VH + 6VL) VH: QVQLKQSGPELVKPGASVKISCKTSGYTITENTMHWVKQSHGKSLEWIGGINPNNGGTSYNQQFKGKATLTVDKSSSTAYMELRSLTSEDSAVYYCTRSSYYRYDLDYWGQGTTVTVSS VL: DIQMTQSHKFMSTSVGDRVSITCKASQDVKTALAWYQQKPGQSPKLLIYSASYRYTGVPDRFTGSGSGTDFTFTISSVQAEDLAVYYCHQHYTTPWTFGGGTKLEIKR" reported_property="Bottom (RLU)" output_unit=RLU meas_value=51400
binder="Hu1217-2-2 (anti-TIGIT positive control antibody) (antibody, V domains shown) VH: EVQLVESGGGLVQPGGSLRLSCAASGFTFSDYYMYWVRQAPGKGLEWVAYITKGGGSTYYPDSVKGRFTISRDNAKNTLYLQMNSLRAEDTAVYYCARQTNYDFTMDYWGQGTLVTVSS VL: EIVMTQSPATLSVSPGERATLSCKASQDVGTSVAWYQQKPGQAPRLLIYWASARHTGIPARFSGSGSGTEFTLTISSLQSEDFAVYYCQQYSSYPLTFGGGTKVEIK" reported_property="Bottom (RLU)" output_unit=RLU meas_value=52900

Values from patent US20260139048A1
